# System: B16-F10
# measurement.notes: Cytotoxicity against mouse B16F10 cells at 100 uM after 24 hrs by MTT assay relative to control
# Type: functional
Calls of active or inactive are those of the source. No cut-off for these calls is given here.
recorded.metric: Activity

Observe how each entry below is paired with its result.
| line.notation | Activity |
| --- | --- |
| O=C(/C=C/c1cccc2ccccc12)c1ccccc1O | 75.2% |
| CCCCOc1ccc(/C=C/C(=O)c2c(OC)cc(OC)c(Br)c2O)cc1 | inactive |
| COc1cc(OC)c(C(=O)/C=C/c2c(OC)cccc2OC)c(O)c1Br | inactive |
| COc1cc(O)c(C(=O)/C=C/c2cccc3ccccc23)c(OC)c1 | inactive |
| COc1cc(C(=O)/C=C/c2ccc3ccccc3c2)ccc1O | inactive |

Simply: COc1cc(O)c(C(=O)/C=C/c2cccc([N+](=O)[O-])c2)c(OC)c1 , B16-F10, Activity = inactive

Simply: COc1cc(OC)c(C(=O)/C=C/c2ccccc2C(=O)O)c(O)c1Br , B16-F10, Activity = 50%

Simply: COc1ccc(/C=C/C(=O)c2c(OC)cc(OC)c(Br)c2O)cc1 , B16-F10, Activity = inactive

Simply: COc1cc(OC)c(C(=O)/C=C/c2ccc([N+](=O)[O-])cc2)c(O)c1Br , B16-F10, Activity = inactive

Simply: O=C(/C=C/c1cccc2ccccc12)c1cccc(O)c1 , B16-F10, Activity = 97.7%

Simply: COc1cc(O)c(C(=O)/C=C/c2cccc(Cl)c2)c(OC)c1 , B16-F10, Activity = inactive

Simply: COc1cc(OC)c(C(=O)/C=C/c2ccccc2Cl)c(O)c1Br , B16-F10, Activity = inactive

Simply: O=C(/C=C/c1ccc2ccccc2c1)c1ccccc1O , B16-F10, Activity = inactive
